Hey, just so you know, these numbers are from ChEMBL document CHEMBL5625272.

System: Glutamate carboxypeptidase 2 (Homo sapiens, UniProt Q04609)
Sequence (Q04609 whole entry): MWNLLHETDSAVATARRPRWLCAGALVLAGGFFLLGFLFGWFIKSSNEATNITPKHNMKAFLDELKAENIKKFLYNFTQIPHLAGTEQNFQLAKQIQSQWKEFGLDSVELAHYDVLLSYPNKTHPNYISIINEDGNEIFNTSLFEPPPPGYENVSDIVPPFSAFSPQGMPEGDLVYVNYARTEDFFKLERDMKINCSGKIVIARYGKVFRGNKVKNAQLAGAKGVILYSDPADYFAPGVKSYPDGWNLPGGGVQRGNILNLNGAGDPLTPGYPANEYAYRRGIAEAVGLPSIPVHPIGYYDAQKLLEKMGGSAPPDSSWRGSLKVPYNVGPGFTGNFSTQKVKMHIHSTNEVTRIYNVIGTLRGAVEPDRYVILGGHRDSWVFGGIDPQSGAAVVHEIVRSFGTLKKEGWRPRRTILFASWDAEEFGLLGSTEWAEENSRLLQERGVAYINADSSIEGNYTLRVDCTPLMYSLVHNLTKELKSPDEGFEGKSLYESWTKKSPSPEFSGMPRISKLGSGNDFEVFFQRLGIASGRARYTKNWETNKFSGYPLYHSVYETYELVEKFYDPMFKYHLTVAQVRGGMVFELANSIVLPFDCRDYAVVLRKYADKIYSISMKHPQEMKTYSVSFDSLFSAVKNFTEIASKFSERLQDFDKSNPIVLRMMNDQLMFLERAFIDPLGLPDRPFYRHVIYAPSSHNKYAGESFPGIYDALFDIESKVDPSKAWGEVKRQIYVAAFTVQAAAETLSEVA
Test protocol: Irreversible inhibition of PSMA (unknown origin)
Property name: IC50

Inquiry: What does the data say about its IC50? Entry: COc1cccc2c1C(=O)c1c(O)c3c(c(O)c1C2=O)C[C@@](O)(C(=O)CO)C[C@@H]3O[C@H]1C[C@H](N)[C@H](O)[C@H](C)O1 [DOXORUBICIN]
Reply text: 10 µM
